Value source: PubChem BioAssay AID1851

# target-entity: Cytochrome P450 2C19 (Homo sapiens) (UniProt P33261)
# Sequence (P33261 whole entry, looked up): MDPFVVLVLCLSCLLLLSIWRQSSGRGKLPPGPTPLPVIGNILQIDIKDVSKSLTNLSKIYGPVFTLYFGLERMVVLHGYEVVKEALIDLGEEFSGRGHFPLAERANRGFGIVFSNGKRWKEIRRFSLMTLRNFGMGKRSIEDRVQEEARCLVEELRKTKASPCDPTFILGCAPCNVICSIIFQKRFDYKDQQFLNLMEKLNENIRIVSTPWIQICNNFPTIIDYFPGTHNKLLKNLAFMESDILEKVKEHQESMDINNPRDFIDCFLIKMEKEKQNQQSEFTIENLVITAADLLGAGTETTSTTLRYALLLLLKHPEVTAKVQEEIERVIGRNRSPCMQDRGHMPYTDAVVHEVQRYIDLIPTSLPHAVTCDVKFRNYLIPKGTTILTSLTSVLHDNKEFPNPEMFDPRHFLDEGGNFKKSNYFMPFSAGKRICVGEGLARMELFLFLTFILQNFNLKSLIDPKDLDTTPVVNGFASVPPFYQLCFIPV
# experiment-summary: Cytochrome panel assay with activity outcomes
# test-parameters: recombinant CYP, pro-luciferin dealkylation, luminescence, p450-cyp2c19; series mostly up to 57.1 µM
The campaign covered roughly 16,000 compounds. About 5,800 (36%) were called active. Another 23% or so got no clear call; they are omitted. Some of the results follow.

| compound | target-entity | AC50 |
| --- | --- | --- |
| CCc1ccccc1NC(=O)CSc1nc(-c2ccccc2)nn1C(=O)c1cccc([N+](=O)[O-])c1 | Cytochrome P450 2C19 (Homo sapiens) (UniProt P33261) | 0.398 µM (active) |
| CC(C)(C)NC(=O)Cn1cnc([N+](=O)[O-])n1 | Cytochrome P450 2C19 (Homo sapiens) (UniProt P33261) | inactive |
| O=C(NC(=S)Nc1nc(-c2ccc(Br)cc2)cs1)c1cccnc1 | Cytochrome P450 2C19 (Homo sapiens) (UniProt P33261) | 10 µM (active) |
| O=S(=O)(c1ccccc1)N1N=C(c2cccs2)CC1c1ccc(Br)cc1 (centres undefined) | Cytochrome P450 2C19 (Homo sapiens) (UniProt P33261) | 2 µM (active) |
| CCCN1C(=O)/C(=C/c2ccc(C)s2)SC1=Nc1ccc(OC)cc1 | Cytochrome P450 2C19 (Homo sapiens) (UniProt P33261) | 11.2 µM (active) |
| Cc1nc2cnc(N(C)C)nc2n(-c2ccccc2)c1=O | Cytochrome P450 2C19 (Homo sapiens) (UniProt P33261) | inactive |
| O=C(CN1CCN(S(=O)(=O)c2ccc(F)cc2)CC1)Nc1ccc(Cl)c(C(F)(F)F)c1 | Cytochrome P450 2C19 (Homo sapiens) (UniProt P33261) | 7.94 µM (active) |
| Cc1cnc(CNc2ncnc3ccc(-c4cccc(C#N)c4)cc23)cn1 | Cytochrome P450 2C19 (Homo sapiens) (UniProt P33261) | inactive |
| Cn1c(Oc2ccccc2)c(C=O)c2ccccc21 | Cytochrome P450 2C19 (Homo sapiens) (UniProt P33261) | 4.47 µM (active) |
| COc1ccc(Nc2ncnc3sc(-c4ccccc4)cc23)cc1 | Cytochrome P450 2C19 (Homo sapiens) (UniProt P33261) | 3.16 µM (active) |
| COc1cccc(NC(=S)NNC(=O)C(C)n2nc(C)c([N+](=O)[O-])c2C)c1 (centres undefined) | Cytochrome P450 2C19 (Homo sapiens) (UniProt P33261) | 7.94 µM (active) |
| CSc1nncc(/C(C)=N\Nc2ccccc2)n1 | Cytochrome P450 2C19 (Homo sapiens) (UniProt P33261) | 5.01 µM (active) |
| O=C(CN1CCN(S(=O)(=O)c2ccc(Cl)cc2)CC1)Nc1ccc2c(c1)OCO2 | Cytochrome P450 2C19 (Homo sapiens) (UniProt P33261) | 2.82 µM (active) |
| O=C(NNC(=S)NC(=O)c1cccnc1)c1ccccc1 | Cytochrome P450 2C19 (Homo sapiens) (UniProt P33261) | inactive |

====

# target-entity: Cytochrome P450 2C19 (Homo sapiens) (UniProt P33261)
# experiment-summary: Cytochrome panel assay with activity outcomes
# test-parameters: recombinant CYP, pro-luciferin dealkylation, luminescence, p450-cyp2c19; series mostly up to 57.1 µM
Hit rate of the full screen: of about 16,000 compounds, about 5,800 (36%) were called active. Roughly 23% stayed inconclusive and do not appear here. Calls follow the shape of the dose curve; as a rule, active = well fitted curve in the direction sought with a large enough effect; inconclusive = small, poorly fitted or top-dose-only effect, or effect the other way; inactive = no such curve, though single readings can be large or run the other way. This is one part of the list.
Labels: active, inactive

| molecule | category-label |
| --- | --- |
| O=Nc1c(O)n(Cc2cccc(Cl)c2)c2ccccc12 | active |
| CN[C@]1(C)[C@H]2CC[C@@H](C2)C1(C)C | inactive |
| CCC(=O)N[C@@H]1Cc2ccccc2[C@@H](c2ccccc2)C1 | active |
| CC(C)NC(=O)CC(=O)N/N=C/c1ccc(Br)cc1 | active |
| O=Nc1ccc(NOC(=O)c2ccc(Br)cc2)cc1 | inactive |
| Cn1c(=O)c2c(n(Cc3ccccc3)c1=O)NC(=O)C2CC(=O)NCc1cccc(Cl)c1 (stereo not given) | inactive |
| CCOC(=O)C1=C(C)N=C2c3ccccc3C(=O)C2C1c1ccc(Cl)cc1 (stereo not given) | active |
| CCNCc1cc(OCC)c(OCC(=O)NCCc2ccccc2)cc1Cl | active |
| O=C(O)CP(=O)(O)O | inactive |
| CCn1nccc1C(=O)Nc1nc2ccccc2n1CCN1CCCCC1 | inactive |
| CCOc1ccc(NC(=O)N2CCC(c3ccc(C)cc3)C2)cc1 (stereo not given) | inactive |
| NC[C@](O)(CS(=O)(=O)O)c1ccc(Cl)cc1 | inactive |
| C=CCn1c(NCc2ccccc2)nc2ccccc21 | active |
| CCC(=O)N[C@@H]1CCc2cccc(OC)c2C1 | inactive |
| NC(=O)c1ccc([N+](=O)[O-])cc1SCc1ccccc1 | active |

====

# target-entity: Cytochrome P450 2C19 (Homo sapiens)
# experiment-summary: Cytochrome panel assay with activity outcomes
# test-parameters: recombinant CYP, pro-luciferin dealkylation, luminescence, p450-cyp2c19; series mostly up to 57.1 µM
In all, about 16,000 compounds went through this assay and about 5,800 (36%) were called active. Roughly 23% stayed inconclusive and do not appear here. Calls follow the shape of the dose curve; as a rule, active = well fitted curve in the direction sought with a large enough effect; inconclusive = small, poorly fitted or top-dose-only effect, or effect the other way; inactive = no such curve, though single readings can be large or run the other way. This is one part of the list.
Labels: YES = active, NO = inactive

| molecule | category-label |
| --- | --- |
| COc1ccccc1CN1CC[C@@]2(CCCN(C(=O)c3cccn3C)C2)C1 | NO |
| O=C1CC(c2ccc3c(c2)OCO3)Sc2nc3ccccc3n21 (centres undefined) | YES |
| NNC(=O)CCSc1ccccc1 | YES |
| COc1ccc(-n2c(C)n[nH]c2=O)cc1 | NO |
| CC(=O)CC(=O)[C@@]1(O)CC[C@@H]2[C@@H]3C=C(C)C4=CC(=O)CC[C@@H]4[C@H]3CC[C@]21C | YES |
| CCN[C@@H]1C[C@H](C)S(=O)(=O)c2sc(S(N)(=O)=O)cc21 | NO |
| CCCCN=c1sc(C(=O)OC)cc(=O)n1CCCC | YES |
| C1CCc2nnnn2CC1 | NO |
| Clc1ccc(-c2nnc(-c3ccco3)o2)cc1 | YES |
| CS(=O)(=O)c1ccc([C@H](O)[C@H](CO)NC(=O)C(Cl)Cl)cc1 | NO |
| Cc1noc(C)c1-c1cncnc1NCc1ccccc1 | NO |
| O=C(Oc1ccc(C(=S)N2CCOCC2)cc1Br)c1cc(Cl)ccc1Cl | NO |
| Cc1ccc(-n2ncc(N(C)C)c(Cl)c2=O)cc1 | NO |
| Cc1cccc(CNc2ncncc2-c2ccccc2Cl)c1 | YES |
| O=C1C(C2=NC(C(=O)O)C3C(=O)N(c4ccc(Cl)cc4)C(=O)C23)=C(O)c2ccccc21 (centres undefined) | NO |
| COc1cccc(-c2cc(NCc3ccc(OC)cc3OC)ncn2)c1 | YES |
| CCNc1ncc2nc(C)c(=O)n(C[C@H]3CCCO3)c2n1 | NO |
| O=C(Nc1nnc(-c2ccc(Cl)cc2)o1)Nc1ccccc1Cl | NO |
| O=C1C2=C(NC(=S)NC2c2ccc(Cl)cc2)NC(c2ccc(Cl)cc2)N1c1ccc(Cl)cc1 (centres undefined) | YES |
| CCOc1cc(CNCCO)cc(Br)c1OCc1ccccc1Cl | YES |
| COC(=O)[C@@]1(Cc2ccccc2)[C@H]2c3cc(C(=O)N4CCCC4)n(CC4CC4)c3C[C@H]2CN1C(=O)c1ccccc1 | YES |
| CCNc1ncc2nc(-c3cccc(C#N)c3)c(=O)n(CCC#N)c2n1 | NO |
| Cc1cnc(C(=O)OCC(=O)NC(C)C)cn1 | NO |
| CN(C)Cc1ccccc1-c1cncnc1NCc1cccnc1 | NO |

====

# target-entity: Cytochrome P450 2C19 (Homo sapiens)
# experiment-summary: Cytochrome panel assay with activity outcomes
# test-parameters: recombinant CYP, pro-luciferin dealkylation, luminescence, p450-cyp2c19; series mostly up to 57.1 µM
# Method: The P450 gene superfamily is involved in the metabolism and clearance of xenobiotics. This assay used various human CYP P450 isozymes to measure the dealkylation of various pro-luciferin substrates to luciferin. The luciferin is then measured by luminescence after the addition of a luciferase detection reagent. […] Inhibitors and some substrates limit the production of luciferin, and decrease measured luminescence. […] 8, Detection, 1 sec, ViewLux luminescent read […]
Out of some 16,000 compounds screened, about 5,800 (36%) were called active. Roughly 23% stayed inconclusive and do not appear here. Calls follow the shape of the dose curve; as a rule, active = well fitted curve in the direction sought with a large enough effect; inconclusive = small, poorly fitted or top-dose-only effect, or effect the other way; inactive = no such curve, though single readings can be large or run the other way. This is one part of the list.
Labels: Y (active), N (inactive)

| compound | target-entity | category-label |
| --- | --- | --- |
| COc1ccc(-n2c(=O)c(-c3ccccc3)nc3cnc(N4CCNCC4)nc32)cc1 | Cytochrome P450 2C19 (Homo sapiens) | N |
| c1cncc(-c2ccc3ncnc(NCCN4CCOCC4)c3c2)c1 | Cytochrome P450 2C19 (Homo sapiens) | N |
| CCc1ccccc1NC(=S)NCc1ccc2c(c1)OCO2 | Cytochrome P450 2C19 (Homo sapiens) | Y |
| OC[C@@H]1NC[C@@H](O)[C@@H](O)[C@H]1O | Cytochrome P450 2C19 (Homo sapiens) | N |
| CCn1c(SCC(=O)Nc2sc3c(c2C(N)=O)CCC(C)C3)nnc1-c1ccco1 (centres undefined) | Cytochrome P450 2C19 (Homo sapiens) | Y |
| Cc1ccccc1C(=O)NNC(=O)c1ccc(F)cc1 | Cytochrome P450 2C19 (Homo sapiens) | N |
| CCOC(=O)c1c(C)n(C)c2ccc(OC(=O)c3ccco3)cc12 | Cytochrome P450 2C19 (Homo sapiens) | Y |
| CCOC(=O)C1CCCN(C/C=C/c2ccccc2[N+](=O)[O-])C1 (centres undefined) | Cytochrome P450 2C19 (Homo sapiens) | Y |
| CCOC(=O)C(=Cc1ccc(-c2ccsc2C(=O)OC)o1)C(=O)OCC | Cytochrome P450 2C19 (Homo sapiens) | Y |
| COc1ccc(NC(=O)C2CCN(C(=O)c3cccs3)CC2)c(OC)c1 | Cytochrome P450 2C19 (Homo sapiens) | N |
| CCCn1c(N)[n+](CC(=O)c2ccco2)c2ccccc21 | Cytochrome P450 2C19 (Homo sapiens) | N |
| COc1cc(OC)cc(C(=O)Nc2ccccc2C(=O)N2CCCC2)c1 | Cytochrome P450 2C19 (Homo sapiens) | Y |
| CC[C@H](CO)NCCN[C@@H](CC)CO | Cytochrome P450 2C19 (Homo sapiens) | N |
| Cc1ccccc1C(=O)NN(C)c1nc2ccccc2nc1C(F)(F)F | Cytochrome P450 2C19 (Homo sapiens) | Y |
| CC1CC(C)CN(C/C=C/c2ccccc2[N+](=O)[O-])C1 (centres undefined) | Cytochrome P450 2C19 (Homo sapiens) | Y |
| COc1ccc(/C=C/C(=O)Nc2nc(C)cc(C)n2)cc1OC | Cytochrome P450 2C19 (Homo sapiens) | N |
| COC(=O)c1ccccc1NC(=O)C1CCN(C(=O)c2ccc(OC)cc2)CC1 | Cytochrome P450 2C19 (Homo sapiens) | Y |
| O=C(/C=C/c1cccc([N+](=O)[O-])c1)NCCN1CCOCC1 | Cytochrome P450 2C19 (Homo sapiens) | N |
| COc1cc(/C=C\C(=O)N2CCC=CC2=O)cc(OC)c1OC | Cytochrome P450 2C19 (Homo sapiens) | N |
